Measured inhibition of growth at 64 µM accompanies every entry in the list below.
Test system: Staphylococcus aureus
Protocol Text: Antibacterial activity against methicillin-resistant Staphylococcus aureus ATCC 1960649 assessed as reduction in bacterial growth at 64 uM incubated for 15 to 20 hrs by broth microdilution method relative to control
Assay type: functional
Condition Details: time 15-20 hrs, read-out: GI
Give the number; % is assumed, so skip it.

Here are 2 molecules together with their reported answers.
smiles=NC[C@H]1O[C@H](O[C@H]2[C@H](O)[C@@H](O[C@H]3O[C@H](CNC(=O)CCC(=O)N[C@@H](Cc4ccc(O)cc4)C(=O)N[C@@H](CS)C(N)=O)[C@@H](O)[C@H](N)[C@H]3O)[C@H](N)C[C@@H]2N)[C@H](O)[C@@H](O)[C@@H]1O meas_value=38
smiles=NC[C@H]1O[C@H](O[C@H]2[C@H](O)[C@@H](O[C@H]3O[C@H](CO)[C@@H](O)[C@H](N)[C@H]3O)[C@H](N)C[C@@H]2N)[C@H](O)[C@@H](O)[C@@H]1O meas_value=41

Now let's try a different one.
Find inhibition of growth at 64 µM (Staphylococcus aureus) for the entry NC[C@H]1O[C@H](O[C@H]2[C@H](O)[C@@H](O[C@H]3O[C@H](CNC(=O)CCC(=O)N[C@@H](Cc4ccccc4)C(=O)N[C@@H](CS)C(N)=O)[C@@H](O)[C@H](N)[C@H]3O)[C@H](N)C[C@@H]2N)[C@H](O)[C@@H](O)[C@@H]1O
22

---

Protocol Text: Cytotoxicity against human MCF7 cells assessed as reduction cell viability at 2.5 to 5 uM incubated for 24 hrs by MTT assay
Assay type: cell-based
Condition Details: dose 2.5-5 µM, read-out: INH
Measure Name: cytotoxicity at 24 h, up to 5 µM (%)
Give the number; % is assumed, so skip it.

Requested read-out: cytotoxicity at 24 h, up to 5 µM. Entry: NC[C@H]1O[C@H](O[C@H]2[C@H](O)[C@@H](O[C@H]3O[C@H](CNC(=O)CCC(=O)N[C@@H](Cc4ccccc4)C(=O)N[C@@H](CS)C(N)=O)[C@@H](O)[C@H](N)[C@H]3O)[C@H](N)C[C@@H]2N)[C@H](O)[C@@H](O)[C@@H]1O
2

---

Tested on: microRNA 21
Protocol Text: Displacement of F-neo from premature miRNA21 (unknown origin) at 100 nM by fluorescence assay relative to control
Assay type: nucleic-acid assay
Measure Name: inhibition (%)
Give the number; % is assumed, so skip it.

Here are 5 compounds together with their reported answers.
smiles=N=C(N)NCCC[C@H](NC(=O)[C@H](CCCNC(=N)N)NC(=O)CCC(=O)NC[C@H]1O[C@H](O[C@@H]2[C@@H](O)[C@H](O[C@H]3O[C@H](CN)[C@@H](O)[C@H](O)[C@H]3O)[C@@H](N)C[C@H]2N)[C@H](O)[C@@H](N)[C@@H]1O)C(N)=O measure_name=inhibition reading_unit=% meas_value=137
smiles=NC[C@H]1O[C@H](O[C@H]2[C@H](O)[C@@H](O[C@H]3O[C@H](CNC(=O)CCC(=O)N[C@@H](Cc4ccc(O)cc4)C(=O)N[C@@H](CC(=O)O)C(N)=O)[C@@H](O)[C@H](N)[C@H]3O)[C@H](N)C[C@@H]2N)[C@H](O)[C@@H](O)[C@@H]1O measure_name=inhibition reading_unit=% meas_value=5
smiles=NC[C@H]1O[C@H](O[C@H]2[C@H](O)[C@@H](O[C@H]3O[C@H](CNC(=O)CCC(=O)N[C@@H](Cc4ccc(O)cc4)C(=O)N[C@@H](CS)C(N)=O)[C@@H](O)[C@H](N)[C@H]3O)[C@H](N)C[C@@H]2N)[C@H](O)[C@@H](O)[C@@H]1O measure_name=inhibition reading_unit=% meas_value=133
smiles=C[C@@H](O)[C@H](NC(=O)[C@H](CCCNC(=N)N)NC(=O)CCC(=O)NC[C@H]1O[C@H](O[C@@H]2[C@@H](O)[C@H](O[C@H]3O[C@H](CN)[C@@H](O)[C@H](O)[C@H]3O)[C@@H](N)C[C@H]2N)[C@H](O)[C@@H](N)[C@@H]1O)C(N)=O measure_name=inhibition reading_unit=% meas_value=131
smiles=NC[C@H]1O[C@H](O[C@H]2[C@H](O)[C@@H](O[C@H]3O[C@H](CNC(=O)CCC(=O)N[C@@H](Cc4ccccc4)C(=O)N[C@@H](CS)C(N)=O)[C@@H](O)[C@H](N)[C@H]3O)[C@H](N)C[C@@H]2N)[C@H](O)[C@@H](O)[C@@H]1O measure_name=inhibition reading_unit=% meas_value=140

Now let's try a different one.
Find inhibition (microRNA 21) for the entry CN[C@@H]1[C@H](O[C@H]2[C@H](O[C@H]3[C@H](O)[C@@H](O)[C@H](N=C(N)N)[C@@H](O)[C@@H]3N=C(N)N)O[C@@H](C)[C@]2(O)C=O)O[C@@H](CO)[C@H](O)[C@H]1O
107

Data provenance: ChEMBL document CHEMBL4715681
